Cited source for all entries: patent US6849458

- study system: human α-thrombin (human), P00734
- test: microplate thermal shift assay; Kd at Tm of Hirugen for thrombin with 50 µM 3dp-4660 present
value kind: pKd
Scale: negative log10 of molar concentration, which is what pKd denotes.

Recorded pKd of DGDFEEIPEEYL (modifications not checked) [Hirugen (hirudin 53-64), P01050 53-64] , please.
6.14
